This listing pairs compounds with measured pIC50.
Molecular target: NPY Y2 receptor (Homo sapiens, UniProt P49146)
Sequence (P49146 whole entry): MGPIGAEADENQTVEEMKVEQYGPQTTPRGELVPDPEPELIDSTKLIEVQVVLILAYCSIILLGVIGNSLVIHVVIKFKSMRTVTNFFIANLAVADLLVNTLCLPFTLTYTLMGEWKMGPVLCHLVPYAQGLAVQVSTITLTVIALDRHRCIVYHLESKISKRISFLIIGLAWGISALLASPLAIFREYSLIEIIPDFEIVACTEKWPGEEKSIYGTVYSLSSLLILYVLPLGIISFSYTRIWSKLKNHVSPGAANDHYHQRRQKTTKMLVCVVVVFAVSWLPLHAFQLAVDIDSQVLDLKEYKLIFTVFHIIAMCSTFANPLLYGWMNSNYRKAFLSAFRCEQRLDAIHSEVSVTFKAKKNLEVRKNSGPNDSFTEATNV
Assay: Neuropeptide Y2 radioligand binding assay ([125I]PYY, KAN-Ts membranes)
Details: KAN-Ts membranes endogenously expressing Y2, [125I]PYY (80 pM), 1 h at rt
pIC50: −log10 of the molar value.

- compound: "CCC(CC)C(=O)Nc1ccc(N2CCN(C(C#N)c3ccccc3OC)CC2)c(F)c1 (stereo not drawn)"
  pIC50: 5.92
- compound: "CCC(CC)C(=O)Nc1ccc(N2CCN(C(c3ccccc3)c3noc(C)n3)CC2)c(F)c1 (stereo not drawn)"
  pIC50: 7.89
- compound: "CCC(CC)C(=O)Nc1ccc(N2CCN(C(c3ccccc3)c3nc(C)no3)CC2)c(F)c1 (stereo not drawn)"
  pIC50: 7.57

Reference source: patent US20120129870A1
